- measurement target: ABL1 (T315I) (Homo sapiens, UniProt P00519, T315I)
- assay protocol: Luminescence-based ABL kinase assay (ADP-Glo, 300 μM ATP), T315I mutant
- Assay type: biochemical
- Method: Kinase activity of ABL1 was measured using the ADP-Glo system (Promega), which measures formation of ADP using a luminescence-based method. Compounds were serially diluted in DMSO. […] During this step, ADP was converted to ATP, a substrate for luciferase, to produce luminescence signal. Luminescence was measured on an Envision plate reader (Perkin Elmer). Luminescence signal positively correlates with kinase activity. […] IC50 values were calculated using the XLFit software.
attribute measured: IC50 (nM)

Worked examples, 5 compounds total:
1) O=C(Nc1ccc2c(-c3ccc4[nH]cnc4c3)c[nH]c2n1)C1CC1: 4.57
2) COc1ccccc1-c1c[nH]c2nc(NC(=O)[C@@H]3C[C@@H]3F)ccc12: 0.896
3) COc1ccccc1-c1n[nH]c2nc(NC(=O)C3CC3)ccc12: 39.8
4) COc1ncnc(OC2CC2)c1-c1c[nH]c2nc(NC(=O)[C@@H]3C[C@@H]3F)ccc12: 1.37
5) Cc1cc(N)ncc1-c1c[nH]c2nc(NC(=O)C3CC3)ccc12: 731

(A) O=C(Nc1ccc2c(-c3cccnc3OC3CC3)c[nH]c2n1)[C@@H]1C[C@@H]1F
(B) COc1ccccc1-c1c[nH]c2nc(NC(=O)NCCN(C)C)ccc12
// task: argmin of IC50 over [ A , B ] Lab log: write the label of the selected item as the result.
A

(P) COc1cc2[nH]ncc2cc1-c1c[nH]c2nc(NC(=O)[C@H]3C[C@H]3F)ccc12
(Q) [2H]C([2H])([2H])Oc1ccccc1-c1n[nH]c2nc(NC(=O)[C@@H]3C[C@@H]3F)ccc12
(R) COc1c(-c2c[nH]c3nc(NC(=O)[C@@H]4C[C@@H]4F)ccc23)ccn2ncnc12
(S) COc1cc2ncsc2c(F)c1-c1c[nH]c2nc(NC(=O)[C@@H]3C[C@@H]3F)ccc12
Ordering criterion: IC50; begin with the maximum. Write the labels out in the order the request specifies.
R, Q, P, S
(R: 151 nM, Q: 15.3 nM, P: 5.63 nM, S: 1.71 nM)

(P) COc1ccccc1-c1c[nH]c2nc(NC(=O)[C@H]3C[C@H]3F)ccc12
(Q) CNc1cc(C)c(-c2c[nH]c3nc(NC(=O)C4CC4)ccc23)cn1
# returns the entry with the larger IC50; inputs P and Q Write the label of whichever entry you select.
Q
(Q: 774 nM, P: 9.96 nM)

(P) O=C(Nc1ccc2c(-c3ccc4[nH]ccc4c3)c[nH]c2n1)C1CC1
(Q) COc1cc2ncoc2cc1-c1c[nH]c2nc(NC(=O)[C@@H]3C[C@@H]3F)ccc12
Quick check, higher IC50 between P and Q ? In your reply, give the label of the chosen option.
P
(P: 14.5 nM, Q: 6.59 nM)

* * *

- measurement target: ABL1 (Homo sapiens, UniProt P00519)
- Construct: purchased Carna Biosciences
- assay protocol: Luminescence-based ABL kinase assay (ADP-Glo, 300 μM ATP)
- Format: biochemical
attribute measured: IC50 (nM)

1) O=C(Nc1ccc2c(-c3ccccc3F)c[nH]c2n1)C1CC1: 119
2) COc1ccccc1-c1n[nH]c2nc(NC(=O)[C@@H]3C[C@@H]3F)ccc12: 14.3
3) COc1cc2scnc2cc1-c1c[nH]c2nc(NC(=O)NCCN3CCNCC3)ccc12: 30.6

(a) COc1cc2ocnc2cc1-c1c[nH]c2nc(NC(=O)[C@@H]3C[C@@H]3F)ccc12
(b) Nc1ccc(-c2c[nH]c3nc(NC(=O)C4CC4)ccc23)cn1
(c) COc1ncccc1-c1c[nH]c2nc(NC(=O)[C@H]3C[C@H]3F)ccc12
(d) COc1ccnc(OC)c1-c1c[nH]c2nc(NC(=O)NCCN3CCNCC3)ccc12
(e) COc1cccc(OC)c1-c1c[nH]c2nc(NC(=O)C3CC3CN3CCNCC3)ccc12 (single isomer, unassigned) [Example S150, Enantiomer 1]
List the 5 entries from lowest IC50 to highest IC50 value. Labels, ranked as asked.
e, a, d, c, b
(e: 5.42 nM, a: 18.6 nM, d: 36 nM, c: 62.9 nM, b: 121 nM)
